Entries and their measured relative cell viability follow.
System: HT-1080;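 note: viability read as CCK-8 absorbance at 450 nm in cells co-exposed to the GPX4 inhibitor RSL3, relative to a 0.01% DMSO vehicle control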
Test Summary: relative cell viability with RSL3 co-treatment (fraction of control); higher = stronger protection from RSL3-induced ferroptosis (higher viability)
Condition Details: 10 µM
Respond numerically, and do not add a unit to the figure.

A selection of reference data follows.
COc1ccc(-c2ccc3c(N4CCOC[C@@H]4C)nc(N4CCOC[C@@H]4C)nc3n2)cc1CO :: 0.893
Cn1c(Nc2ccc(C(F)(F)F)cc2)nc2cc(Oc3ccnc(-c4ncc(C(F)(F)F)[nH]4)c3)ccc21 :: 0.593

Observed relative cell viability on HT-1080 for CN(C[C@@H]1COCCO1)S(=O)(=O)Nc1ccc2ccc3ncc(-c4cnn(C)c4)cc3c(=O)c2c1 , please.
0.657

Observed relative cell viability on HT-1080 for O=C1NC(=O)C(c2ccccc2[N+](=O)[O-])=C1Nc1ccc(O)c(Cl)c1 , please.
0.847

Entry source: the supplement of paper PMC9588786
